Consider the following compounds; for each one, report its Bliss excess.
tested on: SW1271 (Small Cell Lung Carcinoma); test: Bliss excess, mean over the matrix (fraction); higher = more synergy
Number only, no unit.

Any idea what Bliss excess was measured for Cc1cc2ncnn2cc1Nc1ncc2c(n1)n(C1CCOCC1)c(=O)n2C [AZD7648] + COc1cc([C@@H]2c3cc4c(cc3[C@@H](O[C@@H]3O[C@@H]5CO[C@@H](C)O[C@H]5[C@H](O)[C@H]3O)[C@H]3COC(=O)[C@H]23)OCO4)cc(OC)c1O [Etoposide] (first compound max 10 µM, 7x7, partner max 10 µM) ? 0.0441

For the compound CN(CCO)CC[C@H](CSc1ccccc1)Nc1ccc(S(=O)(=O)NC(=O)c2ccc(N3CCC([C@@H](O)c4ccccc4-c4ccc(Cl)cc4)CC3)cc2)cc1S(=O)(=O)C(F)(F)F [AZD4320] + C[C@@H](Nc1cc(F)cc(F)c1)c1cc(C(=O)N(C)C)cc2c(=O)cc(N3CCOCC3)oc12 [AZD8186] (first compound max 1 µM, 7x7, partner max 3 µM) , what Bliss excess is on record? -0.0447

Recorded Bliss excess of O=C(c1cc(Cc2n[nH]c(=O)c3ccccc23)ccc1F)N1CCN(C(=O)C2CC2)CC1 [Olaparib] + Cc1c2c(nn1C)CSCc1cc(n(C)n1)CSc1cc(c3ccccc3c1)OCCCc1c(C(=O)O)n(C)c3c-2c(Cl)ccc13 [AZD5991] (first compound max 10 µM, 7x7, partner max 1 µM) , please. -0.0523

###

system: Mewo (Melanoma); assay: combination Emax (second highest fraction inhibited in the dose matrix, 72 h); higher = more inhibition; extreme values may be limits of the assay
I'd appreciate it if you could supply combination Emax values for the items below.
Could you keep your reply to the number by itself?

Need combination Emax of CN(CCO)CC[C@H](CSc1ccccc1)Nc1ccc(S(=O)(=O)NC(=O)c2ccc(N3CCC([C@@H](O)c4ccccc4-c4ccc(Cl)cc4)CC3)cc2)cc1S(=O)(=O)C(F)(F)F [AZD4320] + C=CCn1c(=O)c2cnc(Nc3ccc(N4CCN(C)CC4)cc3)nc2n1-c1cccc(C(C)(C)O)n1 [AZD1775] (first compound max 1 µM, partner max 1 µM) , thanks. 0.548

Would you mind telling me what combination Emax value was observed for Cc1c2c(nn1C)CSCc1cc(n(C)n1)CSc1cc(c3ccccc3c1)OCCCc1c(C(=O)O)n(C)c3c-2c(Cl)ccc13 [AZD5991] + Cn1cnc2c(F)c(Nc3ccc(Br)cc3Cl)c(C(=O)NOCCO)cc21 [Selumetinib] (first compound max 1 µM, 7x7, partner max 3 µM) ? 0.475

Would you kindly share the measured combination Emax for C=CCn1c(=O)c2cnc(Nc3ccc(N4CCN(C)CC4)cc3)nc2n1-c1cccc(C(C)(C)O)n1 [AZD1775] + O=C(c1cc(Cc2n[nH]c(=O)c3ccccc23)ccc1F)N1CCN(C(=O)C2CC2)CC1 [Olaparib] (first compound max 1 µM, partner max 10 µM) ? 0.382

// combination Emax lookup, key: COc1cccc(OCCCN)c1-c1cc(Nc2cnc(C#N)cn2)n[nH]1 [Prexasertib] + Cc1cc2ncnn2cc1Nc1ncc2c(n1)n(C1CCOCC1)c(=O)n2C [AZD7648] (first compound max 1 µM, 7x7, partner max 10 µM) 0.516

###

test system: HO-1-u-1 (Oral Cavity Carcinoma); experiment: combination Emax (second highest fraction inhibited in the dose matrix, 72 h); higher = more inhibition; extreme values may be limits of the assay
Classification field: Met = combination Emax at or over 0.7; Not met = combination Emax under 0.7.

combination Emax >= 0.7 for Cc1c2c(nn1C)CSCc1cc(n(C)n1)CSc1cc(c3ccccc3c1)OCCCc1c(C(=O)O)n(C)c3c-2c(Cl)ccc13 [AZD5991] + CCN(CCO)CCCOc1ccc2c(Nc3cc(CC(=O)Nc4cccc(F)c4)[nH]n3)ncnc2c1 [AZD2811] (first compound max 1 µM, 7x7, partner max 1 µM) ? Not met

Answer whether combination Emax of CC(=O)Nc1cccc(-n2c(=O)n(C3CC3)c(=O)c3c(Nc4ccc(I)cc4F)n(C)c(=O)c(C)c32)c1 [Trametinib] + Cc1nc(-c2cn3c(n2)-c2ccc(-c4cnn(C(C)(C)C(N)=O)c4)cc2OCC3)n(C(C)C)n1 [Taselisib] (first compound max 1 µM, 7x7, partner max 10 µM) is greater than or equal to 0.7. Met

# bool: combination Emax of Cc1cc2ncnn2cc1Nc1ncc2c(n1)n(C1CCOCC1)c(=O)n2C [AZD7648] + CCN(CCO)CCCOc1ccc2c(Nc3cc(CC(=O)Nc4cccc(F)c4)[nH]n3)ncnc2c1 [AZD2811] (first compound max 10 µM, 7x7, partner max 1 µM) >= 0.7 Not met

###

system: K5 (Thyroid Gland Carcinoma); assay: Bliss excess, mean over the matrix (fraction); higher = more synergy
Give Bliss excess for every item shown.
Kindly provide the number alone.

Request the reported Bliss excess associated with Cc1nc(-c2cn3c(n2)-c2ccc(-c4cnn(C(C)(C)C(N)=O)c4)cc2OCC3)n(C(C)C)n1 [Taselisib] + O=C(Nc1ccc2[nH]nc(-c3ccncc3)c2c1)[C@@H]1CCN(CC(=O)N2CCN(c3ccc(-c4ncccn4)cc3)CC2)C1 [SCH772984] (first compound max 10 µM, 7x7, partner max 5 µM) 0.0419

# input compound: CN(CCO)CC[C@H](CSc1ccccc1)Nc1ccc(S(=O)(=O)NC(=O)c2ccc(N3CCC([C@@H](O)c4ccccc4-c4ccc(Cl)cc4)CC3)cc2)cc1S(=O)(=O)C(F)(F)F [AZD4320] + CC(=O)O[C@H]1C(=O)[C@@]2(C)[C@H]([C@H](OC(=O)c3ccccc3)[C@]3(O)C[C@H](OC(=O)[C@H](O)[C@@H](NC(=O)c4ccccc4)c4ccccc4)C(C)=C1C3(C)C)[C@]1(OC(C)=O)CO[C@@H]1C[C@@H]2O [Paclitaxel] (first compound max 1 µM, 7x7, partner max 3 µM) ; wanted: its Bliss excess 0.0018

// returns reported Bliss excess for input CC1(C)CCC(CN2CCN(c3ccc(C(=O)NS(=O)(=O)c4ccc(NCC5CCOCC5)c([N+](=O)[O-])c4)c(Oc4cnc5[nH]ccc5c4)c3)CC2)=C(c2ccc(Cl)cc2)C1 [Venetoclax] + COc1cc(Nc2ncc3c(n2)-c2ccc(Cl)cc2C(c2c(F)cccc2OC)=NC3)ccc1C(=O)O [Alisertib] (first compound max 1 µM, 7x7, partner max 10 µM) -0.0455

I would be grateful if you could share the reported Bliss excess for Cc1c2c(nn1C)CSCc1cc(n(C)n1)CSc1cc(c3ccccc3c1)OCCCc1c(C(=O)O)n(C)c3c-2c(Cl)ccc13 [AZD5991] + C1CN(CCC1(C(=O)N[C@@H](CCO)C2=CC=C(C=C2)Cl)N)C3=NC=NC4=C3C=CN4 [Capivasertib] (first compound max 1 µM, 7x7, partner max 3 µM) . -0.021

Tell me the measured Bliss excess of Cc1c2c(nn1C)CSCc1cc(n(C)n1)CSc1cc(c3ccccc3c1)OCCCc1c(C(=O)O)n(C)c3c-2c(Cl)ccc13 [AZD5991] + Cc1cc2ncnn2cc1Nc1ncc2c(n1)n(C1CCOCC1)c(=O)n2C [AZD7648] (first compound max 1 µM, 7x7, partner max 10 µM) , please. -0.0537

Give its Bliss excess value. Item: CN(CCO)CC[C@H](CSc1ccccc1)Nc1ccc(S(=O)(=O)NC(=O)c2ccc(N3CCC([C@@H](O)c4ccccc4-c4ccc(Cl)cc4)CC3)cc2)cc1S(=O)(=O)C(F)(F)F [AZD4320] + CCN(CCO)CCCOc1ccc2c(Nc3cc(CC(=O)Nc4cccc(F)c4)[nH]n3)ncnc2c1 [AZD2811] (first compound max 1 µM, 7x7, partner max 1 µM) -0.0283

###

test system: MDA-MB-468 (Breast Carcinoma); test: Bliss excess, mean over the matrix (fraction); higher = more synergy
endpoint-name: Bliss excess
Keep it simple and answer with nothing but the number.

Query for MDA-MB-468 (Breast Carcinoma): what Bliss excess does the record show for C[C@@H]1COCCN1c1cc(C2([S@](C)(=N)=O)CC2)nc(-c2ccnc3[nH]ccc23)n1 [AZD6738] + Nc1ccn([C@@H]2O[C@H](CO)[C@@H](O)C2(F)F)c(=O)n1 [Gemcitabine] (first compound max 10 µM, 7x7, partner max 0.3 µM) ? 0.0233

Please provide the recorded Bliss excess for C[C@@H]1COCCN1c1cc(C2([S@](C)(=N)=O)CC2)nc(-c2ccnc3[nH]ccc23)n1 [AZD6738] + C1CC(C1)(C(=O)[O-])C(=O)[O-].N.N.[Pt+2] [Carboplatin] (first compound max 10 µM, 7x7, partner max 10 µM) , tested on MDA-MB-468 (Breast Carcinoma). -0.0511

Please state recorded Bliss excess (tested on MDA-MB-468 (Breast Carcinoma)) of Cc1c2c(nn1C)CSCc1cc(n(C)n1)CSc1cc(c3ccccc3c1)OCCCc1c(C(=O)O)n(C)c3c-2c(Cl)ccc13 [AZD5991] + C=CCn1c(=O)c2cnc(Nc3ccc(N4CCN(C)CC4)cc3)nc2n1-c1cccc(C(C)(C)O)n1 [AZD1775] (first compound max 1 µM, partner max 1 µM) -0.0956

Quick check: Bliss excess on MDA-MB-468 (Breast Carcinoma), item CCc1c2c(nc3ccc(O)cc13)-c1cc3c(c(=O)n1C2)COC(=O)[C@]3(O)CC [SN-38] + CN(C)CCCOc1ccc(-c2ccc3ncc4c(c3c2)n(C2CCOCC2)c(=O)n4C)cn1 [AZD0156] (first compound max 0.3 µM, 7x7, partner max 1 µM) ? 0.0309

Can you look up Bliss excess on MDA-MB-468 (Breast Carcinoma) for CCN(CCO)CCCOc1ccc2c(Nc3cc(CC(=O)Nc4cccc(F)c4)[nH]n3)ncnc2c1 [AZD2811] + C[C@@H]1COCCN1C2=NC(=NC(=C2)C3(CC3)[S@](=N)(=O)C)C4=C5C=CNC5=NC=C4 [AZD6738] (first compound max 1 µM, 7x7, partner max 10 µM) ? -0.0977

# query: Bliss excess | item CN(C)CCCOc1ccc(-c2ccc3ncc4c(c3c2)n(C2CCOCC2)c(=O)n4C)cn1 [AZD0156] + CCN(CCO)CCCOc1ccc2c(Nc3cc(CC(=O)Nc4cccc(F)c4)[nH]n3)ncnc2c1 [AZD2811] (first compound max 1 µM, 7x7, partner max 1 µM) | system: MDA-MB-468 (Breast Carcinoma) -0.0326

Record lookup: for MDA-MB-468 (Breast Carcinoma), what Bliss excess belongs to CC(=O)c1c(C)c2cnc(Nc3ccc(N4CCNCC4)cn3)nc2n(C2CCCC2)c1=O [Palbociclib] + Cc1c2c(nn1C)CSCc1cc(n(C)n1)CSc1cc(c3ccccc3c1)OCCCc1c(C(=O)O)n(C)c3c-2c(Cl)ccc13 [AZD5991] (first compound max 10 µM, 7x7, partner max 1 µM) ? 0.0078

Form field - read-out: Bliss excess; system: MDA-MB-468 (Breast Carcinoma); submitted item: C=CCn1c(=O)c2cnc(Nc3ccc(N4CCN(C)CC4)cc3)nc2n1-c1cccc(C(C)(C)O)n1 [AZD1775] + O=C(c1cc(Cc2n[nH]c(=O)c3ccccc23)ccc1F)N1CCN(C(=O)C2CC2)CC1 [Olaparib] (first compound max 1 µM, partner max 10 µM) -0.0449

Lab note: need Bliss excess for O=C(c1cc(Cc2n[nH]c(=O)c3ccccc23)ccc1F)N1CCN(C(=O)C2CC2)CC1 [Olaparib] + CC1(C)CCC(CN2CCN(c3ccc(C(=O)NS(=O)(=O)c4ccc(NCC5CCOCC5)c([N+](=O)[O-])c4)c(Oc4cnc5[nH]ccc5c4)c3)CC2)=C(c2ccc(Cl)cc2)C1 [Venetoclax] (first compound max 10 µM, 7x7, partner max 1 µM) on MDA-MB-468 (Breast Carcinoma), anyone have it? -0.0372

Missing value: Bliss excess, MDA-MB-468 (Breast Carcinoma), entry CN(C)CCCOc1ccc(-c2ccc3ncc4c(c3c2)n(C2CCOCC2)c(=O)n4C)cn1 [AZD0156] + O=C(c1cc(Cc2n[nH]c(=O)c3ccccc23)ccc1F)N1CCN(C(=O)C2CC2)CC1 [Olaparib] (first compound max 3 µM, partner max 3 µM) . Fill in? 0.0645

For the record C[C@@H](Nc1cc(F)cc(F)c1)c1cc(C(=O)N(C)C)cc2c(=O)cc(N3CCOCC3)oc12 [AZD8186] + C1CN(CCC1(C(=O)N[C@@H](CCO)C2=CC=C(C=C2)Cl)N)C3=NC=NC4=C3C=CN4 [AZD5363] (first compound max 10 µM, 7x7, partner max 10 µM) , what value of Bliss excess is listed for MDA-MB-468 (Breast Carcinoma)? -0.0305

Hi! What's the reported Bliss excess for Cc1c2c(nn1C)CSCc1cc(n(C)n1)CSc1cc(c3ccccc3c1)OCCCc1c(C(=O)O)n(C)c3c-2c(Cl)ccc13 [AZD5991] + CC(=O)O[C@H]1C(=O)[C@@]2(C)[C@H]([C@H](OC(=O)c3ccccc3)[C@]3(O)C[C@H](OC(=O)[C@H](O)[C@@H](NC(=O)c4ccccc4)c4ccccc4)C(C)=C1C3(C)C)[C@]1(OC(C)=O)CO[C@@H]1C[C@@H]2O [Paclitaxel] (first compound max 1 µM, 7x7, partner max 3 µM) on MDA-MB-468 (Breast Carcinoma)? -0.051

Query for MDA-MB-468 (Breast Carcinoma): what Bliss excess does the record show for CS(=O)(=O)CCNCc1ccc(-c2ccc3ncnc(Nc4ccc(OCc5cccc(F)c5)c(Cl)c4)c3c2)o1 [Lapatinib] + NC1(c2ccc(-c3nc4ccn5c(=O)[nH]nc5c4cc3-c3ccccc3)cc2)CCC1 [MK-2206] (first compound max 10 µM, 7x7, partner max 10 µM) ? 0.0008
